B1: Segment polarity protein dishevelled homolog DVL-3, residues 2 to 81; numbered along this chain, Q92997 (parent)
chain: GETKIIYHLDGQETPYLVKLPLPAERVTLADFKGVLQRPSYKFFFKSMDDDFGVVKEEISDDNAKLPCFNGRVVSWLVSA

Variants of: B1
experimentalDetails: abundance fitness (aPCA) (normalised: wild type 0, dead -1); higher = more abundant; growth selection in yeast, the domain comes from the species named
particulars: Homo sapiens
Listing: abundance fitness of selected variants
Answer with a number only.

# abundance fitness of `A80K` = 0.212

# abundance fitness of `V54G` = -0.127

# abundance fitness of `K46V` = -0.407

# abundance fitness of `F44H` = -0.807

# abundance fitness of `K46H` = -0.132

# abundance fitness of `K65G` = -0.47
